- Tested on: OVCAR-8 ovarian
- measurement_protocol: NCI-60 one-dose screen, 48 h
- assay_setup: 10 µM unless noted
About 83,000 compounds went through this panel and 20% of them were active in at least one assay; those are over-represented in the sample as a whole. Active and inactive are the calls of the source. The calls were made as follows: active = growth percent below 10; inactive = the rest.
The reply should name one outcome from active, inactive

Fill in: this test's call for CC(=O)N1C(=S)NC(=O)C1Cn1c(-c2ccccc2)nc2ccccc21 (stereo unspecified) is ___
inactive

Fill in: this test's call for COc1cc(/C=C2\C(=O)ON=C2C)cc(OC)c1OC is ___
inactive

* * *

# reported growth; entries follow
- Test system: UACC-257 melanoma
- measurement_protocol: NCI-60 one-dose screen, 48 h (100 = growth as untreated, 0 = no growth, -100 = all killed)
- assay_setup: 10 µM unless noted
This is part of a sample that, as a whole, favours compounds with a hit. Of some 83,000 tested, about 20% had one in any assay. Activity calls are given as the source filed them. How the source made its calls: active means growth percent below 10; inactive means the rest.

Requested read-out growth, target or system UACC-257 melanoma, entry N#Cc1c(-c2cccc(Cl)c2)cc(-c2cccc(F)c2)[nH]c1=O
102% (inactive)

Requested read-out growth, target or system UACC-257 melanoma, entry Cn1c(-c2c(N)n(Cc3cccnc3)c3nc(C#N)c(C#N)nc23)nc2ccccc21
102% (inactive)

Requested read-out growth, target or system UACC-257 melanoma, entry CC1(C)CC(=O)CC2(C1)N=C(N)Nc1nc3ccccc3n12 (stereo not drawn)
106% (inactive)

Requested read-out growth, target or system UACC-257 melanoma, entry COc1cccc(C(=O)NCCNc2cc(-c3cn(-c4ccccc4)nc3-c3cccc(OC)c3)ccn2)c1
46.9% (inactive)

Requested read-out growth, target or system UACC-257 melanoma, entry COc1ccc2c(c1)CCCN2c1c2ccccc2nc2ccccc12
71.2% (inactive)

Requested read-out growth, target or system UACC-257 melanoma, entry CCc1ccccc1-n1c(-c2ccc(Cl)cc2)cc(-c2ccc(OC)cc2)c(C#N)c1=O
112% (inactive)

Requested read-out growth, target or system UACC-257 melanoma, entry C[C@H]1[C@H]2[C@H]3CC[C@@H]4[C@@]5(C)C/C(=C/c6cccnc6)C(=O)C(C)(C)[C@@H]5CC[C@@]4(C)[C@]3(C)CC[C@]23CO[C@]1(C)[C@@H](C(=O)/C=C\c1cccnc1)C3
13.2% (inactive)

Values were extracted from PubChem BioAssay (NCI).
